Molecular target: Nitric oxide synthase, inducible (Homo sapiens, UniProt P35228)
Sequence (P35228 whole entry): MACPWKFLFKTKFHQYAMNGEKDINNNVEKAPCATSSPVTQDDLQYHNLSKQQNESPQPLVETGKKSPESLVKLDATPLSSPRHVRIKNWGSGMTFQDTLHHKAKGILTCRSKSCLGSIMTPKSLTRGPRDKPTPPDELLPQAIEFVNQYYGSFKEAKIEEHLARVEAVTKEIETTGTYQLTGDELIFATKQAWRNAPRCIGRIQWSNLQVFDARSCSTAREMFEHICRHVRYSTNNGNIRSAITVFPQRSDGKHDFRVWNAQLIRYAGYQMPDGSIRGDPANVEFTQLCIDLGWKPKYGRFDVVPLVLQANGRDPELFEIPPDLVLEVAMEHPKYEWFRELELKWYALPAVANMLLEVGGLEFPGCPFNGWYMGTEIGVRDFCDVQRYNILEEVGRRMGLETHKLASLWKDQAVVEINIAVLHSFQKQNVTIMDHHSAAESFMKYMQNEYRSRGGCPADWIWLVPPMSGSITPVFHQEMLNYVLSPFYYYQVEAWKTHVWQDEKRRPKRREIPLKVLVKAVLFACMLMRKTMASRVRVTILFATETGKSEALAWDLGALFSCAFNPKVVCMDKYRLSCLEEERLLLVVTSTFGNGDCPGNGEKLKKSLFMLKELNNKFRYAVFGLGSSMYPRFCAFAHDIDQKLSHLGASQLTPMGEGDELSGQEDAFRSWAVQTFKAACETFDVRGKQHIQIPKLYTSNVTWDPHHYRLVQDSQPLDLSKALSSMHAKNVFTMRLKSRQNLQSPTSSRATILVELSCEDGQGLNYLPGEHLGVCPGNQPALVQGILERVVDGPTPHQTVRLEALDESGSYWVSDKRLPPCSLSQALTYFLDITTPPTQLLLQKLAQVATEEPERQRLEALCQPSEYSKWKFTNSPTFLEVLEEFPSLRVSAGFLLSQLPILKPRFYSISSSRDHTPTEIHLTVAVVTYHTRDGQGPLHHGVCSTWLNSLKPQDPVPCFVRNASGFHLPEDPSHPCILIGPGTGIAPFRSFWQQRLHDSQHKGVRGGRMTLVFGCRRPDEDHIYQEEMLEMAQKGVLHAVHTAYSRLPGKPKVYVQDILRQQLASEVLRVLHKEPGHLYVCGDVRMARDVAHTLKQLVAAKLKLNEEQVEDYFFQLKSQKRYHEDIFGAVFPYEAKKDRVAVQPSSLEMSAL
Assay: Inhibition of human iNOS expressed in human HEK293 cells assessed as nitrite accumulation after 18 hrs by 2,3-diaminonapthalene assay
Observable: EC50 (nM)

Below: 5 compounds and their reported EC50.
[[record]]
compound = "c1cn(-c2nsc(N(CCCNCc3ccc4c(c3)OCO4)Cc3ccc4occc4c3)n2)cn1"
endpoint_result = 90

[[record]]
compound = "c1cncc(CN(CCCNCc2ccc3c(c2)OCO3)c2nc(-n3ccnc3)ns2)c1"
endpoint_result = 5

[[record]]
compound = "c1cn(-c2nsc(N(CCCNCc3ccc4c(c3)OCO4)C3CC3)n2)cn1"
endpoint_result = 56

[[record]]
compound = "CN(C)c1ccc(CN(CCCNCc2ccc3c(c2)OCO3)c2nc(-n3ccnc3)ns2)cc1"
endpoint_result = 163

[[record]]
compound = "Cc1cc(CNC(=O)CNCc2ccc3c(c2)OCO3)nc(-n2ccnc2)n1"
endpoint_result = 293


P. Cc1cc(C2CCCN2C(=O)CNCc2ccc3c(c2)OCO3)nc(-n2ccnc2)n1 (stereo not given)
Q. Cc1cc(CNC(=O)NCCc2ccc3c(c2)OCO3)nc(-n2ccnc2)n1
Prompt: Higher EC50: P or Q ? Your answer should be the label of the entry you select.
Response: P
(P: 30 nM, Q: 14 nM)

* * *

Molecular target: UniProt:P35228
Experiment: Inhibition of human iNOS expressed in human HEK293 cells assessed as nitrite accumulation after 18 hrs by 2,3-diaminonapthalene assay
Observable: EC50 (nM)

Below: 2 molecules and their reported EC50.
[[record]]
molecule = "CNC(=O)CN(CCCNCc1ccc2c(c1)OCO2)c1nc(-n2ccnc2)ns1"
observable = "EC50"
endpoint_result = 59

[[record]]
molecule = "CCOC(=O)CN(CCCNCc1ccc2c(c1)OCO2)c1nc(-n2ccnc2)ns1"
observable = "EC50"
endpoint_result = 34


P. CN(CCCNCc1ccc2c(c1)OCO2)c1nc(-n2ccnc2)ns1 [KD7040]
Q. Cc1cc(C2CCCN2CC(=O)NCc2ccc3c(c2)OCO3)nc(-n2ccnc2)n1 (stereo not given)
R. Cc1cc(CCCCNCc2ccc3c(c2)OCO3)nc(-n2ccnc2)n1
Prompt: Arrange these 3 molecules in increasing order of EC50. Rank them, then answer with their labels in that order.
Response: P, R, Q
(P: 8 nM, R: 20 nM, Q: 36 nM)

a. Cc1cc(C(C)(C)NCCNCc2ccc3c(c2)OCO3)nc(-n2ccnc2)n1
b. c1coc(CN(CCCNCc2ccc3c(c2)OCO3)c2nc(-n3ccnc3)ns2)c1
c. CN(CCCNCc1ccc2c(c1)OC(F)(F)O2)c1nc(-n2ccnc2)ns1
Prompt: Arrange these 3 molecules in increasing order of EC50. Rank them, then answer with their labels in that order.
Response: b, a, c

1. CCCN(CCCNCc1ccc2c(c1)OCO2)c1nc(-n2ccnc2)ns1
2. COc1ccc(CNCCCN(C)c2nc(-n3ccnc3)ns2)cc1OC
3. c1cn(-c2nsc(N(CCCNCc3ccc4c(c3)OCO4)Cc3nccs3)n2)cn1
4. Cc1cc(C2CCCN2CCN(C)Cc2ccc3c(c2)OCO3)nc(-n2ccnc2)n1 (stereo not given)
5. Cc1cc(C(C)NCCN(C)Cc2ccc3c(c2)OCO3)nc(-n2ccnc2)n1 (stereo not given)
Prompt: Reorder: EC50, max to min. Rank them, then answer with their labels in that order.
Response: 2, 5, 1, 3, 4
(2: 760 nM, 5: 29 nM, 1: 9 nM, 3: 6 nM, 4: 4 nM)

I. Cc1cc(C2CCCN2C(=O)NCCc2ccc3c(c2)OCO3)nc(-n2ccnc2)n1 (stereo not given)
II. Cc1cc(-c2cccn2CCN(C)Cc2ccc3c(c2)OCO3)nc(-n2ccnc2)n1
III. Oc1ccc(CN(CCCNCc2ccc3c(c2)OCO3)c2nc(-n3ccnc3)ns2)cc1
Prompt: Reorder: EC50, max to min. Rank them, then answer with their labels in that order.
Response: II, III, I
(II: 1800 nM, III: 42 nM, I: 9 nM)
